# Tested on: SN12C
# Protocol Details: NCI tumour cell line growth inhibition, 48 h
The source made the active and inactive calls. Rule as the data show it: active = GI50 up to about 1.1 µM and inactive = higher. Where a SMILES comes first, the peptide text is derived from it. Bridges are numbered along the chain shown (N, C = ends). [ ]: non-standard residue; d: D form. The star is where a group is joined. ξ: configuration not given here. PhAc = O=C(Cc1ccccc1)*; ξP = O=C(O)C1CCCN1
Quantity Name: GI50

Compound	Quantity Name	Readout Value
CC(C)(C)OC(=O)C1/C(=C/CO)CN1C(=O)OC(C)(C)C (stereo not drawn)	GI50	> 100 µM (inactive)
O=C(Nc1ccc(Cl)cc1)c1cc(S(=O)(=O)NC2=Nc3ccc(Cl)cc3C(c3ccccc3)N2)c(SSc2cc(Cl)c(C(=O)Nc3ccc(Cl)cc3)cc2S(=O)(=O)NC2=Nc3ccc(Cl)cc3C(c3ccccc3)N2)cc1Cl (stereo not drawn)	GI50	> 100 µM (inactive)
N=C(N)SCc1cccc([N+](=O)[O-])c1	GI50	37 µM (inactive)
O=C(COc1cc(=O)oc2ccccc12)c1ccccc1	GI50	> 100 µM (inactive)
c1ccc(CN(Cn2cccn2)Cn2cccn2)nc1	GI50	> 100 µM (inactive)
O=C(Cc1ccccc1)N[C@@H]1COC(=O)C2CCCN2C(=O)[C@@H]2CCCN2C1=O (stereo partly drawn) (PhAc-[dS]-Pro-[ξP]; ester 1-C)	GI50	> 100 µM (inactive)
Nc1ncnc2c1ncn2C1OC(CO)C(O)C1O (stereo not drawn)	GI50	136 µM (inactive)
O=[As](O)(O)c1ccc(NCc2ccccc2)cc1	GI50	> 100 µM (inactive)
